In this section, each of the compounds is paired with its reported tissue uptake at 24 h.
# procedure summary: in vivo
# Design: species or system mice
# condition details: male, NODSCID 1L2RγKO, mouse, iv, total radioactivity, Heart uptake
Quick note: give the figure in %ID/g, leave out the unit.

Ask: Any idea what tissue uptake at 24 h was measured for COc1ccc(CCCC(=O)NCC(=O)N[C@@H](CCCCNC(=O)CN2CCN(CC(=O)O)CCN(CC(=O)O)CCN(CC(=O)O)CC2)C(=O)NC[C@H]2CC[C@H](C(=O)N[C@@H](Cc3c4ccccc4cc4ccccc34)C(=O)NCCCC[C@H](NC(=O)N[C@@H](CSCC(=O)O)C(=O)O)C(=O)O)CC2)cc1 [177Lu-HTK04048, metal not drawn] ?
Result: 0.36

---
Ask: Any idea what tissue uptake at 24 h was measured for COc1ccc(CCCC(=O)NCC(=O)N[C@@H](CCCCNC(=O)CN2CCN(CC(=O)O)CCN(CC(=O)O)CCN(CC(=O)O)CC2)C(=O)NC[C@H]2CC[C@H](C(=O)N[C@@H](Cc3c4ccccc4cc4ccccc34)C(=O)NCCCC[C@H](NC(=O)N[C@@H](COCC(=O)O)C(=O)O)C(=O)O)CC2)cc1 [177Lu-HTK04028, metal not drawn] ?
Result: 0.36

---

# procedure summary: in vivo
# condition details: male, NODSCID 1L2RγKO, mouse, iv, total radioactivity, Tail uptake
assay readout: tissue uptake at 1 h (%ID/g)
Quick note: give the figure in %ID/g, leave out the unit.

Ask: Any idea what tissue uptake at 1 h was measured for O=C(O)CCC[C@H](NC(=O)N[C@@H](CCCCNC(=O)[C@H](Cc1cccc(I)c1)NC(=O)[C@H]1CC[C@H](CNC(=O)CN2CCN(CC(=O)O)CCN(CC(=O)O)CCN(CC(=O)O)CC2)CC1)C(=O)O)C(=O)O [68Ga-HTK04053, metal not drawn] ?
Result: 0.2

Ask: Any idea what tissue uptake at 1 h was measured for O=C(O)CN1CCN(CC(=O)O)CCN(CC(=O)NC[C@H]2CC[C@H](C(=O)N[C@@H](Cc3c4ccccc4cc4ccccc34)C(=O)NCCCC[C@H](NC(=O)N[C@@H](C[C@@H](F)C(=O)O)C(=O)O)C(=O)O)CC2)CCN(CC(=O)O)CC1 [68Ga-HTK04033, metal not drawn] ?
Result: 0.66

Ask: Any idea what tissue uptake at 1 h was measured for O=C(O)CCC[C@H](NC(=O)N[C@@H](CCCCNC(=O)[C@H](Cc1ccc2ccccc2c1)NC(=O)[C@H]1CC[C@H](CNC(=O)CN2CCN(CC(=O)O)CCN(CC(=O)O)CCN(CC(=O)O)CC2)CC1)C(=O)O)C(=O)O [68Ga-HTK03169, metal not drawn] ?
Result: 0.48

---
Ask: Any idea what tissue uptake at 1 h was measured for O=C(O)CN1CCN(CC(=O)O)CCN(CC(=O)NC[C@H]2CC[C@H](C(=O)N[C@@H](Cc3c4ccccc4cc4ccccc34)C(=O)NCCCC[C@H](NC(=O)N[C@@H](C[C@H](F)C(=O)O)C(=O)O)C(=O)O)CC2)CCN(CC(=O)O)CC1 [68Ga-HTK04040, metal not drawn] ?
Result: 0.85

---

# procedure summary: in vivo
# Parameters: species or system mice
# condition details: male, NODSCID 1L2RγKO, mouse, iv, total radioactivity, Heart uptake
Decide using tissue uptake at 1 h: a value greater than or equal to 4 %ID/g is yes (1), a smaller one is no (0).

Ask: Could you verify whether the entry COc1ccc(CCCC(=O)NCC(=O)N[C@@H](CCCCNC(=O)CN2CCN(CC(=O)O)CCN(CC(=O)O)CCN(CC(=O)O)CC2)C(=O)NC[C@H]2CC[C@H](C(=O)N[C@@H](Cc3c4ccccc4cc4ccccc34)C(=O)NCCCC[C@H](NC(=O)N[C@@H](COCC(=O)O)C(=O)O)C(=O)O)CC2)cc1 [177Lu-HTK04028, metal not drawn] shows tissue uptake at 1 h of no less than 4 %ID/g?
Result: yes (1)

Ask: Could you verify whether the entry O=C(O)CCC[C@H](NC(=O)N[C@@H](CCCCNC(=O)[C@H](Cc1c2ccccc2cc2ccccc12)NC(=O)[C@H]1CC[C@H](CNC(=O)[C@H](CCCCNC(=O)CN2CCN(CC(=O)O)CCN(CC(=O)O)CCN(CC(=O)O)CC2)NC(=O)CNC(=O)CCCc2ccc(Cl)cc2)CC1)C(=O)O)C(=O)O [177Lu-HTK03153, metal not drawn] shows tissue uptake at 1 h of no less than 4 %ID/g?
Result: yes (1)

Ask: Could you verify whether the entry O=C(O)CCC[C@H](NC(=O)N[C@@H](CCCCNC(=O)[C@H](Cc1c2ccccc2cc2ccccc12)NC(=O)[C@H]1CC[C@H](CNC(=O)CN2CCN(CC(=O)O)CCN(CC(=O)O)CCN(CC(=O)O)CC2)CC1)C(=O)O)C(=O)O [177Lu-HTK03149, metal not drawn] shows tissue uptake at 1 h of no less than 4 %ID/g?
Result: no (0)

Ask: Could you verify whether the entry COc1ccc(CCCC(=O)NCC(=O)N[C@@H](CCCCNC(=O)CN2CCN(CC(=O)O)CCN(CC(=O)O)CCN(CC(=O)O)CC2)C(=O)NC[C@H]2CC[C@H](C(=O)N[C@@H](Cc3c4ccccc4cc4ccccc34)C(=O)NCCCC[C@H](NC(=O)N[C@@H](CCCC(=O)O)C(=O)O)C(=O)O)CC2)cc1 [177Lu-HTK03170, metal not drawn] shows tissue uptake at 1 h of no less than 4 %ID/g?
Result: no (0)

Ask: Could you verify whether the entry COc1ccc(CCCC(=O)NCC(=O)N[C@@H](CCCCNC(=O)CN2CCN(CC(=O)O)CCN(CC(=O)O)CCN(CC(=O)O)CC2)C(=O)NC[C@H]2CC[C@H](C(=O)N[C@@H](Cc3c4ccccc4cc4ccccc34)C(=O)NCCCC[C@H](NC(=O)N[C@@H](CSCC(=O)O)C(=O)O)C(=O)O)CC2)cc1 [177Lu-HTK04048, metal not drawn] shows tissue uptake at 1 h of no less than 4 %ID/g?
Result: yes (1)

---

In this section, each of the molecules is paired with its reported tissue uptake at 1 h.
# procedure summary: in vivo
# condition details: male, NODSCID 1L2RγKO, mouse, iv, total radioactivity, Testes uptake
Quick note: give the figure in %ID/g, leave out the unit.

Ask: Any idea what tissue uptake at 1 h was measured for O=C(O)CC[C@H](NC(=O)N[C@@H](CCCCNC(=O)[C@H](Cc1c2ccccc2cc2ccccc12)NC(=O)[C@H]1CC[C@H](CNC(=O)CN2CCN(CC(=O)O)CCN(CC(=O)O)CCN(CC(=O)O)CC2)CC1)C(=O)O)C(=O)O [68Ga-HTK03041, metal not drawn] ?
Result: 1.34

Ask: Any idea what tissue uptake at 1 h was measured for O=C(O)CCC[C@H](NC(=O)N[C@@H](CCCCNC(=O)[C@H](Cc1c2ccccc2cc2ccccc12)NC(=O)[C@H]1CC[C@H](CNC(=O)CN2CCN(CC(=O)O)CCN(CC(=O)O)CCN(CC(=O)O)CC2)CC1)C(=O)O)C(=O)O [68Ga-HTK03149, metal not drawn] ?
Result: 0.38

Ask: Any idea what tissue uptake at 1 h was measured for O=C(O)COC[C@H](NC(=O)N[C@@H](CCCCNC(=O)[C@H](Cc1c2ccccc2cc2ccccc12)NC(=O)[C@H]1CC[C@H](CNC(=O)CN2CCN(CC(=O)O)CCN(CC(=O)O)CCN(CC(=O)O)CC2)CC1)C(=O)O)C(=O)O [68Ga-HTK03187, metal not drawn] ?
Result: 0.15

---
Ask: Any idea what tissue uptake at 1 h was measured for O=C(O)CCC[C@H](NC(=O)N[C@@H](CCCCNC(=O)[C@H](Cc1ccc2ccccc2c1)NC(=O)[C@H]1CC[C@H](CNC(=O)CN2CCN(CC(=O)O)CCN(CC(=O)O)CCN(CC(=O)O)CC2)CC1)C(=O)O)C(=O)O [68Ga-HTK03169, metal not drawn] ?
Result: 0.13

---

# procedure summary: in vivo
# Set-up: species or system mice
# condition details: male, NODSCID 1L2RγKO, mouse, iv, total radioactivity, Lungs uptake
In this section, each of the compounds is paired with its reported tissue uptake at 72 h.
Quick note: give the figure in %ID/g, leave out the unit.

Ask: Any idea what tissue uptake at 72 h was measured for COc1ccc(CCCC(=O)NCC(=O)N[C@@H](CCCCNC(=O)CN2CCN(CC(=O)O)CCN(CC(=O)O)CCN(CC(=O)O)CC2)C(=O)NC[C@H]2CC[C@H](C(=O)N[C@@H](Cc3c4ccccc4cc4ccccc34)C(=O)NCCCC[C@H](NC(=O)N[C@@H](CCCC(=O)O)C(=O)O)C(=O)O)CC2)cc1 [177Lu-HTK03170, metal not drawn] ?
Result: 0.18

Ask: Any idea what tissue uptake at 72 h was measured for COc1ccc(CCCC(=O)NCC(=O)N[C@@H](CCCCNC(=O)CN2CCN(CC(=O)O)CCN(CC(=O)O)CCN(CC(=O)O)CC2)C(=O)NC[C@H]2CC[C@H](C(=O)N[C@@H](Cc3c4ccccc4cc4ccccc34)C(=O)NCCCC[C@H](NC(=O)N[C@@H](CSCC(=O)O)C(=O)O)C(=O)O)CC2)cc1 [177Lu-HTK04048, metal not drawn] ?
Result: 0.29

Ask: Any idea what tissue uptake at 72 h was measured for COc1ccc(CCCC(=O)NCC(=O)N[C@@H](CCCCNC(=O)CN2CCN(CC(=O)O)CCN(CC(=O)O)CCN(CC(=O)O)CC2)C(=O)NC[C@H]2CC[C@H](C(=O)N[C@@H](Cc3c4ccccc4cc4ccccc34)C(=O)NCCCC[C@H](NC(=O)N[C@@H](COCC(=O)O)C(=O)O)C(=O)O)CC2)cc1 [177Lu-HTK04028, metal not drawn] ?
Result: 0.18

Ask: Any idea what tissue uptake at 72 h was measured for O=C(O)CCC[C@H](NC(=O)N[C@@H](CCCCNC(=O)[C@H](Cc1c2ccccc2cc2ccccc12)NC(=O)[C@H]1CC[C@H](CNC(=O)CN2CCN(CC(=O)O)CCN(CC(=O)O)CCN(CC(=O)O)CC2)CC1)C(=O)O)C(=O)O [177Lu-HTK03149, metal not drawn] ?
Result: 0.11

Read the next record carefully.
Ask: Any idea what tissue uptake at 72 h was measured for O=C(O)CCC[C@H](NC(=O)N[C@@H](CCCCNC(=O)[C@H](Cc1c2ccccc2cc2ccccc12)NC(=O)[C@H]1CC[C@H](CNC(=O)[C@H](CCCCNC(=O)CN2CCN(CC(=O)O)CCN(CC(=O)O)CCN(CC(=O)O)CC2)NC(=O)CNC(=O)CCCc2ccc(Cl)cc2)CC1)C(=O)O)C(=O)O [177Lu-HTK03153, metal not drawn] ?
Result: 1.87
